Where do the numbers come from? From paper PMC3214078.

- measurement_target: T1, huUHRF1-PHD(296–367) D337A (human, UniProt Q96T88 296-367, D337A)
- T1 sequence (looked up): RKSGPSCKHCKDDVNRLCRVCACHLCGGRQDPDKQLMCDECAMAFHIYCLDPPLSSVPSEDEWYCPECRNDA
- method_description: ITC; 20°C; histone peptides (1–12Y, 1.5–2 mM) injected into huUHRF1-PHD (0.12–0.18 mM); 20 mM Tris pH 7, 150 mM NaCl, 0.5 mM TCEP, 25 µM ZnCl2, 0.1 mM PMSF
- test_context: both partners purified
attribute_measured: Kd

binder	result
ARTKQTARKSTGY (histone H3 N-terminal tail, residues 1-12; tyrosine after residue 12, read from the label '1–12Y'; also called unmodified H3; H3K4me0) [histone H3 peptide (1–12Y), unmodified]	~70 µM
